Listed next: entries and their corresponding relative viability.
- System: LOU-NH91
- Test Summary: relative viability (nuclei count vs DMSO), 5 days (fraction); higher = more cells survive
- Settings: first compound 0.4 µM

- Compound: "O=C(O)c1ccc(-c2c[nH]c3ncc(-c4ccccc4)cc23)cc1C1CCCC1 + CC(C)C[C@H](NC(=O)[C@H](Cc1ccccc1)NC(=O)c1cnccn1)B(O)O [Bortezomib] (partner 0.002 µM)"
  relative viability: 0.449
- Compound: "O=C(O)c1ccc(-c2c[nH]c3ncc(-c4ccccc4)cc23)cc1C1CCCC1 + O=C(CCCCCCC(=O)Nc1ccccc1)NO [Vorinostat] (partner 1 µM)"
  relative viability: 0.942
- Compound: "O=C(O)c1ccc(-c2c[nH]c3ncc(-c4ccccc4)cc23)cc1C1CCCC1 + Cc1nc(Nc2ncc(C(=O)Nc3c(C)cccc3Cl)s2)cc(N2CCN(CCO)CC2)n1 [Dasatinib] (partner 0.075 µM)"
  relative viability: 0.508
- Compound: "O=C(O)c1ccc(-c2c[nH]c3ncc(-c4ccccc4)cc23)cc1C1CCCC1 + Nc1ncn([C@H]2C[C@H](O)[C@@H](CO)O2)c(=O)n1 [Decitabine] (partner 2 µM)"
  relative viability: 0.832
- Compound: "O=C(O)c1ccc(-c2c[nH]c3ncc(-c4ccccc4)cc23)cc1C1CCCC1 + CC1(C)CCC(c2ccc(Cl)cc2)=C(CN2CCN(c3ccc(C(=O)NS(=O)(=O)c4ccc(N[C@H](CCN5CCOCC5)CSc5ccccc5)c(S(=O)(=O)C(F)(F)F)c4)cc3)CC2)C1 [Navitoclax] (partner 0.5 µM)"
  relative viability: 0.68
- Compound: "O=C(O)c1ccc(-c2c[nH]c3ncc(-c4ccccc4)cc23)cc1C1CCCC1 + C[C@@H](Oc1cc(-c2cnn(C3CCNCC3)c2)cnc1N)c1c(Cl)ccc(F)c1Cl [Crizotinib] (partner 1 µM)"
  relative viability: 0.702
- Compound: "O=C(O)c1ccc(-c2c[nH]c3ncc(-c4ccccc4)cc23)cc1C1CCCC1 + O=C(c1cc(Cc2n[nH]c(=O)c3ccccc23)ccc1F)N1CCN(C(=O)C2CC2)CC1 [Olaparib] (partner 8 µM)"
  relative viability: 0.908
- Compound: "O=C(O)c1ccc(-c2c[nH]c3ncc(-c4ccccc4)cc23)cc1C1CCCC1 + Cc1nc(NC(=O)N2CCC[C@H]2C(N)=O)sc1-c1ccnc(C(C)(C)C(F)(F)F)c1 [Alpelisib] (partner 2 µM)"
  relative viability: 0.68
